- Tested on: UKE1
- assay procedure: ELISA of secreted pro-collagen I alpha 1 (Type I Collagen) from human dermal fibroblasts UKE1
- Format: cell-based
- condition description: 48h, 250 µg
assay metric: collagen reduction percentage in comparison to the standard (100 %)
One number for each entry, in %.

// below: answered compounds
1. COc1nn2c(C)nnc2c2ccccc12	77
2. FC(F)(F)c1nnc2c3ccccc3cnn12	99
3. CC(C)Oc1nn2nnnc2c2c(Cl)cccc12	89

Fill in collagen reduction percentage in comparison to the standard (100 %) for each of the 4 compounds listed.
1. Cc1nnc2c3cscc3cnn12
2. [2H]C([2H])([2H])c1nnc2c3ccccc3cnn12
3. c1nn2nnnc2c2cscc12 [Compound 17, Tetrazolo[1,5-b]thieno[3,4-d]pyridazine]
4. c1ccc2c(c1)cnn1nnnc21

Result block:
99
54
86
85

###

- System: UKE1
- assay procedure: ELISA of secreted pro-collagen I alpha 1 (Type I Collagen) from human dermal fibroblasts UKE1
- Type: cell-based
- condition description: 72 h, 150 µg
- Method: Compounds reconstitution and stock solution: Prior to treatment, DMSO was diluted in PMS until 0,1% DMSO was made. […] After 48h and after 72h 100 µl supernatant of each well was taken, labelled and frozen at -20° degree Celsius. Prior to perform ELISA the medium was depending on the cell line diluted 1:50 or 1:100 with PBS, otherwise the concentration of collagen fibers was too high to be measured. […]
Rule: collagen reduction percentage in comparison to the standard (100 %) under 70% gives N, otherwise Y.

1) c1ccc2c(c1)cnn1nnnc21 [Compound 1, Tetrazolor5,1-alphthalazine]	Y
2) CC(C)Oc1nn2nnnc2c2c(Cl)cccc12 [Compound 44]	N
3) Cc1nnc2c3cscc3cnn12 [Compound 16]	Y
4) c1nn2nnnc2c2cscc12 [Compound 17, Tetrazolo[1,5-b]thieno[3,4-d]pyridazine]	Y
5) [2H]C([2H])([2H])c1nnc2c3ccccc3cnn12 [Compound 7]	N

Query block: In plain terms: is recorded collagen reduction percentage in comparison to the standard (100 %) at least 70% for FC(F)(F)c1nnc2c3ccccc3cnn12 [Compound 5] ?
Result block: Y

###

- Tested on: UKE1
- assay procedure: ELISA of secreted pro-collagen I alpha 1 (Type I Collagen) from human dermal fibroblasts UKE1
- Type: cell-based
- condition description: 72 h, 250 µg
Rule: collagen reduction percentage in comparison to the standard (100 %) under 60% gives rule not met, otherwise rule met.

1) c1ccc2c(c1)cnn1nnnc21	rule met

As a next step, examine the compound that follows.
Query block: In plain terms: is recorded collagen reduction percentage in comparison to the standard (100 %) at least 60% for [2H]C([2H])([2H])c1nnc2c3ccccc3cnn12 ?
Result block: rule not met

###

- System: HRO159N
- assay procedure: ELISA of secreted pro-collagen I alpha 1 (Type I Collagen) from human dermal fibroblasts HRO159N
- Format: cell-based
- condition description: 72 h, 250 µg
Rule: collagen reduction percentage in comparison to the standard (100 %) under 50% gives class 0, otherwise class 1.

Some solved entries appear below for comparison.
1. CC(C)Oc1nn2nnnc2c2c(Cl)cccc12	class 1
2. Cc1nnc2c3cscc3cnn12	class 0

Query block: In plain terms: is recorded collagen reduction percentage in comparison to the standard (100 %) at least 50% for c1ccc2c(c1)cnn1nnnc21 ?
Result block: class 1

Query block: In plain terms: is recorded collagen reduction percentage in comparison to the standard (100 %) at least 50% for c1nn2nnnc2c2cscc12 [Compound 17, Tetrazolo[1,5-b]thieno[3,4-d]pyridazine] ?
Result block: class 0

Query block: In plain terms: is recorded collagen reduction percentage in comparison to the standard (100 %) at least 50% for [2H]C([2H])([2H])c1nnc2c3ccccc3cnn12 ?
Result block: class 0

Query block: In plain terms: is recorded collagen reduction percentage in comparison to the standard (100 %) at least 50% for COc1nn2c(C)nnc2c2ccccc12 ?
Result block: class 1

###

- System: UKE1
- assay procedure: ELISA of secreted pro-collagen I alpha 1 (Type I Collagen) from human dermal fibroblasts UKE1
- Format: cell-based
- condition description: 72 h, 250 µg
collagen reduction percentage in comparison to the standard (100 %) strictly less than 50% = TRUE. Otherwise FALSE.

Some solved entries appear below for comparison.
1. c1nn2nnnc2c2cscc12 [Compound 17, Tetrazolo[1,5-b]thieno[3,4-d]pyridazine]	FALSE
2. Cc1nnc2c3cscc3cnn12	TRUE
3. CC(C)Oc1nn2nnnc2c2c(Cl)cccc12	FALSE
4. FC(F)(F)c1nnc2c3ccccc3cnn12	FALSE

As a next step, examine the compound that follows.
Query block: Lab note: collagen reduction percentage in comparison to the standard (100 %) threshold 50%. Does this compound come in strictly under it? COc1nn2c(C)nnc2c2ccccc12
Result block: FALSE
